Biological target: human Y2 receptor (human) (UniProt P49146)
Sequence (P49146 whole entry): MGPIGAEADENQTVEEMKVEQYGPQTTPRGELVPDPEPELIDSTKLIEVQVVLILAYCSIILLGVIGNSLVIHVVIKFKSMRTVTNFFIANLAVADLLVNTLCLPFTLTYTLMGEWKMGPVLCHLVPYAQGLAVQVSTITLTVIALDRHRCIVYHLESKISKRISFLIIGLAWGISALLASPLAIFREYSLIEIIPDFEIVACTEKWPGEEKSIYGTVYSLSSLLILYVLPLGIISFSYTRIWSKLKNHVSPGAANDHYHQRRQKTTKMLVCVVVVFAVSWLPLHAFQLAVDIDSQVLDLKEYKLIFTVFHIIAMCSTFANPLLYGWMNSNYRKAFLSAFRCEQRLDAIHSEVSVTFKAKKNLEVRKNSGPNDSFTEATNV
Experiment: cell-based or functional assay
Non-standard residues stand in square brackets, D forms with d. *: point of attachment. Phe(4-F) = N[C@@H](Cc1ccc(F)cc1)C(=O)O; 4Pal = N[C@@H](Cc1ccncc1)C(=O)O; Cha = N[C@@H](CC1CCCCC1)C(=O)O; Isobutyryl = CC(C)C(=O)*; Abu = CC[C@H](N)C(=O)O; Aib = CC(C)(N)C(=O)O; Bz = O=C(c1ccccc1)*
reported_metric: GBA EC50 Ratio (vs PYY(3-36)), [35S]GTPγS
Number only, no unit.

Task item: // returns reported GBA EC50 Ratio (vs PYY(3-36)), [35S]GTPγS for input Isobutyryl-R[Abu][Cha][Phe(4-F)]NL[Aib]TRQR[Cha]-NH2 (SMILES CC[C@H](NC(=O)[C@H](CCCNC(=N)N)NC(=O)C(C)C)C(=O)N[C@@H](CC1CCCCC1)C(=O)N[C@@H](Cc1ccc(F)cc1)C(=O)N[C@@H](CC(N)=O)C(=O)N[C@@H](CC(C)C)C(=O)NC(C)(C)C(=O)N[C@H](C(=O)N[C@@H](CCCNC(=N)N)C(=O)N[C@@H](CCC(N)=O)C(=O)N[C@@H](CCCNC(=N)N)C(=O)N[C@@H](CC1CCCCC1)C(N)=O)[C@@H](C)O) [Isobutanoyl-[Abu26, Cha27,36, Phe(4F)28, Aib31]-PYY(25-36)]
Reply: 20

Task item: // returns reported GBA EC50 Ratio (vs PYY(3-36)), [35S]GTPγS for input Bz-RS[Cha][Cha]NL[Aib]TRQR[Cha]-NH2 (SMILES CC(C)C[C@H](NC(=O)[C@H](CC(N)=O)NC(=O)[C@H](CC1CCCCC1)NC(=O)[C@H](CC1CCCCC1)NC(=O)[C@H](CO)NC(=O)[C@H](CCCNC(=N)N)NC(=O)c1ccccc1)C(=O)NC(C)(C)C(=O)N[C@H](C(=O)N[C@@H](CCCNC(=N)N)C(=O)N[C@@H](CCC(N)=O)C(=O)N[C@@H](CCCNC(=N)N)C(=O)N[C@@H](CC1CCCCC1)C(N)=O)[C@@H](C)O) [Benzoyl-[Ser26, Cha27,28,36, Aib31]-PYY(25-36)]
Reply: 6

Task item: // returns reported GBA EC50 Ratio (vs PYY(3-36)), [35S]GTPγS for input Piperidinocarbonyl-E[dP]R[4Pal][Cha][Aib]NK[Aib]TRQR[Cha]-NH2 [Piperidinocarbonyl-[Glu23, D-Pro24, Pya(4)26, Cha27,36, Aib28,31, Lys30]-PYY(23-36)]
Reply: 2.4

The values you see were collected from patent US20120172293A1.
